# Test system: Jurkat (acute lymphoblastic leukemia) cells
# experiment: MTT cell growth inhibition, leukemia cells
# Assay type: cell-based, human
# condition_context: Homo sapiens; Jurkat, 72 h, MTT; read-out: IC50
reported_endpoint: IC50 (µg/mL)
Form entry: value (µg/mL) — number only.

compound	measured_on	IC50 / µg/mL
COc1ccc2cc1Oc1ccc(cc1)C[C@H]1c3cc(c(OC)cc3CCN1C)Oc1c(OC(=O)c3ccc(N(C)C)cc3)c(OC)cc3c1[C@H](C2)N(C)CC3	Jurkat (acute lymphoblastic leukemia) cells	0.36
COc1ccc2cc1Oc1ccc(cc1)C[C@H]1c3cc(c(OC)cc3CCN1C)Oc1c(OCC(O)CN3CCCCC3)c(OC)cc3c1[C@H](C2)N(C)CC3 (stereo partly drawn)	Jurkat (acute lymphoblastic leukemia) cells	0.58

Please examine the following record next.
Entry C=CCOc1c(OC)cc2c3c1Oc1cc4c(cc1OC)CCN(C)[C@H]4Cc1ccc(cc1)Oc1cc(ccc1OC)C[C@@H]3N(C)CC2 , Jurkat (acute lymphoblastic leukemia) cells data, IC50 value: 0.64
